Source of measurements: PubChem BioAssay (NCI)

- Tested on: OVCAR-5 ovarian
- assay details: NCI-60 one-dose screen, 48 h (100 = growth as untreated, 0 = no growth, -100 = all killed)
- particulars: 10 µM unless noted
- Experimental: Growth inhibition of the OVCAR-5 human tumor cell line is measured as a screen for anti-cancer activity. Cells are grown in 96 well plates and exposed to the test compound for 48 hours. Compounds are tested at a single concentration, which is 10^-5 M for most compounds. The reported endpoint is percent growth (GI% or GIPRCNT), where numbers from 0 - 100% represent growth inhibition, and numbers from -100% - 0 represent cell death. For example, a value of 40 represents 60% growth inhibition. […]
About 83,000 compounds went through this panel and 20% of them were active in at least one assay; those are over-represented in the sample as a whole.
measure: growth (%)
One number for each entry, in %.

Illustrative cases are given below, each with its answer.
compound=COc1ccc(NC2=C(Cl)C(=O)C(C)=C(C)C2=O)cc1OC measure=growth endpoint_value=103
compound=c1ccc2c(NCCCN3CCOCC3)c3oc4ccccc4c3nc2c1 measure=growth endpoint_value=1.26
compound=CCOC(=O)c1c(Nc2ccccc2)nn2c(N)c(C#N)c(-c3ccc(F)cc3)nc12 measure=growth endpoint_value=108

Each compound below has a reported value. Please supply its growth.
1. Cc1cccc2sc(/N=C(\N)C(Cl)(Cl)Cl)nc12
2. Clc1ccc(-c2cn3cc(Cc4ccc(Cl)c(Cl)c4)sc3n2)cc1
3. COc1ccc(-c2nc3ccc(-c4nnc(SCC(=O)Nc5ccc(C(C)=O)cc5)o4)cc3[nH]2)cc1
4. O=C(N/N=C/c1ccc[nH]1)c1[nH]c2ccc(Br)cc2c1-c1ccccc1

1: 119; 2: 83.6; 3: 107; 4: 43.7

Each compound below has a reported value. Please supply its growth.
1. c1ccc2c(NCCCn3ccnc3)c3oc4ccccc4c3nc2c1
2. CN1CCc2c(sc3ncnc(N/N=C/c4ccc(Cl)c(Cl)c4)c23)C1
3. O=C(CCN1C(=O)/C(=C/c2ccccc2F)SC1=S)N1CCOCC1
4. O=C1/C(=C/C2=Cc3ccccc3OC2)SC(=S)N1c1ccc(F)cc1
5. Cc1nc(-c2cc3ccccc3oc2=O)ccc1C(=O)/C=C/c1ccc(N2CCOCC2)cc1
6. CCCC(=O)NC(c1cccnc1)c1cc(C)c2cccnc2c1O (stereo not given)
7. CN(C)CCCOc1c2ccc(Cl)cc2nc2c1oc1ccccc12

1. 1.5
2. 71.4
3. 94.2
4. 100
5. 101
6. 53.6
7. 4.62

Each compound below has a reported value. Please supply its growth.
1. CCCC(=O)NC(c1ccc2c(c1)OC(F)(F)O2)c1cc(C)c2cccnc2c1O (stereo not given)
2. CNC(=O)c1cc(-c2ccc(NC(=O)Nc3ccc(N4CCN(C)CC4)c(C(F)(F)F)c3)cc2)nc2cccnc12
3. Clc1ccc2oc3c(OCCCn4ccnc4)c4ccccc4nc3c2c1
4. N#Cc1c(-c2ccc(Cl)cc2)nc(SCc2ccc([N+](=O)[O-])cc2)nc1N1CCNCC1
5. CCOc1ccc([C@H]2C(C(=O)c3ccc(Cl)cc3)C3(N[C@@H]2c2ccccc2)C(=O)Nc2ccc(Br)cc23)cc1 (stereo not given in full)
6. CCOC(=O)c1sc(NCC(=O)Nc2cccc([N+](=O)[O-])c2)c(C(=O)OCC)c1C
7. COc1cc(/C=C/C(=O)c2cc(OC)c(OC)c(OC)c2)ccc1OCc1ccccc1
8. Cc1ccc2ccc3ccc(C)nc3c2n1.Cc1ccc2ccc3ccc(C)nc3c2n1.Oc1c(Cl)cc(Cl)c2ccc(CN3CCCCC3)nc12.[Ru]

1. 42
2. -88.6
3. 73.5
4. 3.39
5. 51.2
6. -13.7
7. 47
8. -72
